Value source: PubChem BioAssay (NCATS)

- Tested on: CP237
- assay_notes: qHTS profiling for inhibitors of Plasmodium falciparum proliferation (AID 504749);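 note: 0% = DMSO vehicle and full inhibition = artemisinin control; nearly all actives have a fitted effect of over 60% in size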
- condition_context: P. falciparum in erythrocytes, SYBR Green DNA, 72 h; series mostly up to 28.7 µM
- Procedure: NIH National Institute of Allergy and Infectious Diseases [NIAID] NIH Chemical Genomics Center [NCGC] […] Because mature erythrocytes lack DNA, only Plasmodium-derived DNA is detected. NCGC Assay Protocol Summary: The SYBR Green viability assay was adapted from a method described previously (Plouffe et al., 2008). […] The following morning, fluorescence intensity at 485(14) nm excitation and 535(25) nm emission wavelengths was measured on an EnVision (Perkin Elmer) plate reader. […]
Records with an inconclusive call do not appear. Calls of active or inactive are those of the source. Calls come from the whole dose curve; as a rule, active = well fitted inhibition curve with a large enough effect; inconclusive = small, poorly fitted or top-dose-only effect; inactive = flat fitted curve, though single readings scatter.
Select the correct class. Options are 1.0 for active, 0.0 for inactive and nothing else.

Record excerpt, results attached:
In [3]: df
Out[3]:
                                   compound  class
0              O=c1n(Cl)c(=O)n(Cl)c(=O)n1Cl    0.0
1  CCC(=O)O[C@H]1CC[C@H]2[C@@H]3CCC4=CC(=O)CC[C@]4(C)[C@H]3CC[C@]12C    0.0
2  CCC1(c2ccccc2)CCC(=O)NC1=O (configuration not stated)    0.0
3                                NCc1cccnc1    0.0
4  CCOC(=O)NC(O)C(Cl)(Cl)Cl (configuration not stated)    0.0

## Input Assay outcome for CC(C)C(Br)C(=O)NC(N)=O (configuration not stated) : what was it?
## Output 0.0

## Input Dear colleague, could you share the recorded outcome for C[C@]12Cc3nonc3C[C@@H]1CC[C@@H]1[C@@H]2CC[C@@]2(C)[C@H]1CC[C@]2(C)O when you have a moment?
## Output 0.0
